Entry source: ChEMBL document CHEMBL3351521

- Experimental target: UDP-N-acetylmuramoyl-L-alanyl-D-glutamate--2,6-diaminopimelate ligase (Escherichia coli (strain K12))
- Method description: Inhibition of Escherichia coli MurE assessed as residual enzyme activity at 250 uM after 15 mins in presence of 0.005% Triton X-114 by Malachite green assay

{"columns": ["Smiles data", "Activity (%)"],
 "data": [
  ["O=C1NC(=S)N(c2ccc(Br)cc2)C(=O)/C1=C\\c1ccc2c(c1)OCO2", 81],
  ["Cc1cc(/C=C2/S/C(=N/c3ccc(F)cc3)NC2=O)c(C)n1C", 76],
  ["C/N=C1/S/C(=C/c2cc(C)n(-c3cc(C(=O)O)cc(C(=O)O)c3)c2C)C(=O)N1C", 97],
  ["O=C1NC(=S)N(c2ccc(F)cc2)C(=O)/C1=C\\c1ccc2c(c1)OCO2", 97],
  ["O=C1N/C(=N\\c2ccc(Br)cc2)S/C1=C/c1c[nH]c2ccccc12", 90],
  ["Cc1cc(/C=C2/S/C(=N/c3cccc(Br)c3)NC2=O)c(C)n1C1CCCCC1", 91],
  ["CCc1ccc(N2C(=O)/C(=C\\c3cc(C)n(C4CCCCC4)c3C)C(=O)NC2=S)cc1", 97]
]}

----------
- Experimental target: UDP-N-acetylmuramoylalanine--D-glutamate ligase (Escherichia coli K-12)
- Sequence (P14900 whole entry): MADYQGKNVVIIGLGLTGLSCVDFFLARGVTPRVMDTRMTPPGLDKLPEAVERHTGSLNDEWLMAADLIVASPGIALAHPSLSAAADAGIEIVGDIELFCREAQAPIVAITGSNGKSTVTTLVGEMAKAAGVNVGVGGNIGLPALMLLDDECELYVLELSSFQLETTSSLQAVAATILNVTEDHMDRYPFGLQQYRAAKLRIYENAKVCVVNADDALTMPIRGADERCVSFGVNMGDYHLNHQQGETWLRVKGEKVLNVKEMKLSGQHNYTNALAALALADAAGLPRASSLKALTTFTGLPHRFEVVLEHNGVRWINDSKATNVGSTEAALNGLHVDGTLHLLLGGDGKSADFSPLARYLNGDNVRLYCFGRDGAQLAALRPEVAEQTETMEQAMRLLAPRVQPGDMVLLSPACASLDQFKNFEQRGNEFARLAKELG
- Method description: Competitive inhibition of Escherichia coli MurD using D-Glu substrate by steady-state enzyme kinetics assay
pKi: −log10 of the molar value.

{"columns": ["Smiles data", "pKi"],
 "data": [
  ["Cc1cc(/C=C2/S/C(=N/c3ccc(Cl)cc3)NC2=O)c(C)n1-c1cc(C(=O)O)cc(C(=O)O)c1", 4.68]
]}

----------
- Experimental target: UDP-N-acetylmuramoylalanine--D-glutamate ligase (Escherichia coli K-12)
- Method description: Inhibition of Escherichia coli MurD after 15 mins in presence of 0.005% Triton X-114 by Malachite green assay
pIC50: −log10 of the molar value.
Attribute: pIC50
Quantity measured: pIC50

{"columns": ["Smiles data", "Numeric result"],
 "data": [
  ["Cc1cc(/C=C2/SC(=S)NC2=O)c(C)n1-c1cc(C(=O)O)cc(C(=O)O)c1", 4.02],
  ["Cc1ccc(/N=C2\\NC(=O)/C(=C\\c3cc(C)n(-c4cc(C(=O)O)cc(C(=O)O)c4)c3C)S2)cc1", 3.77],
  ["Cc1cc(/C=C2/S/C(=N/c3ccc(Br)cc3)NC2=O)c(C)n1-c1cc(C(=O)O)cc(C(=O)O)c1", 4.18],
  ["Cc1cc(/C=C2/S/C(=N/c3ccccc3)NC2=O)c(C)n1-c1cc(C(=O)O)cc(C(=O)O)c1", 3.69],
  ["COc1ccc(/N=C2\\NC(=O)/C(=C\\c3cc(C)n(-c4cc(C(=O)O)cc(C(=O)O)c4)c3C)S2)cc1", 3.77],
  ["Cc1cc(/C=C2/S/C(=N/c3ccc(Cl)cc3)NC2=O)c(C)n1-c1cc(C(=O)O)cc(C(=O)O)c1", 4.22]
]}

----------
- Experimental target: UDP-N-acetylmuramoyl-tripeptide--D-alanyl-D-alanine ligase (Escherichia coli K-12) (UniProt P11880)
- Sequence (P11880 whole entry): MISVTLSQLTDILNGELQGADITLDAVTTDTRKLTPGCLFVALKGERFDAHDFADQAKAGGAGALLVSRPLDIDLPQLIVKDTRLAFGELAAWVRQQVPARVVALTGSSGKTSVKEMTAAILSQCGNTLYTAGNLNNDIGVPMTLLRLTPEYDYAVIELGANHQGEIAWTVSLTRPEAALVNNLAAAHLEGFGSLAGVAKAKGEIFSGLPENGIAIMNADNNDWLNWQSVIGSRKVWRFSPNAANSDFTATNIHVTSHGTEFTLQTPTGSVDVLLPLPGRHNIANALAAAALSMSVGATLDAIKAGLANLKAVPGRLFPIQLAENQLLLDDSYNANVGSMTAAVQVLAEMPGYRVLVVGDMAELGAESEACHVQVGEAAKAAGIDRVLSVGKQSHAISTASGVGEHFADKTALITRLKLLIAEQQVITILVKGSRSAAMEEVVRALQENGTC
- Method description: Inhibition of Escherichia coli MurF assessed as residual enzyme activity at 250 uM after 15 mins in presence of 0.005% Triton X-114 by Malachite green assay
Record Fulfilled whenever Activity is at 80% or higher; record Not fulfilled when lower.

{"columns": ["Smiles data", "Classification"],
 "data": [
  ["Cc1cc(/C=C2/C(=O)NC(=S)N(c3cccc(Cl)c3Cl)C2=O)c(C)n1-c1cc(C(=O)O)cc(C(=O)O)c1", "Fulfilled"],
  ["Cc1cc(/C=C2/S/C(=N/c3cccc(Br)c3)NC2=O)c(C)n1C1CCCCC1", "Fulfilled"],
  ["Cc1cc(/C=C2/C(=O)NC(=O)N(c3ccc(Br)cc3)C2=O)c(C)n1-c1cc(C(=O)O)cc(C(=O)O)c1", "Not fulfilled"],
  ["CCc1ccc(N2C(=O)NC(=O)/C(=C/c3cc(C)n(-c4cc(C(=O)O)cc(C(=O)O)c4)c3C)C2=O)cc1", "Not fulfilled"],
  ["O=C1N/C(=N\\c2ccc(Br)cc2)S/C1=C/c1c[nH]c2ccccc12", "Not fulfilled"]
]}

----------
- Experimental target: UDP-N-acetylmuramate--L-alanine ligase (Escherichia coli K-12) (UniProt P17952)
- Sequence (P17952 whole entry, looked up): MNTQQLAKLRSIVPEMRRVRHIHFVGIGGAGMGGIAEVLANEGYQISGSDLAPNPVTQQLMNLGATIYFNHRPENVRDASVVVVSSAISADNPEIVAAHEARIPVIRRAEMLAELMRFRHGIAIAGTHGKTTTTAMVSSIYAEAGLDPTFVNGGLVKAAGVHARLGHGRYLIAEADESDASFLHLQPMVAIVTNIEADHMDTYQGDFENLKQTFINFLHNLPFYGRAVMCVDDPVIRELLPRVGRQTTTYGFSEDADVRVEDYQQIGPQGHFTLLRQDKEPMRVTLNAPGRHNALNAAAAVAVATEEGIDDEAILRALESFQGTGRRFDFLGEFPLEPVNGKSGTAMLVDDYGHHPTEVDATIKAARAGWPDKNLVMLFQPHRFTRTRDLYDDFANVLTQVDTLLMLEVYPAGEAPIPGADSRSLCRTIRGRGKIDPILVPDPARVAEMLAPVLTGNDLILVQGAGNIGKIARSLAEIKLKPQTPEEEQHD
- Method description: Inhibition of Escherichia coli MurC assessed as residual enzyme activity at 250 uM after 15 mins in presence of 0.005% Triton X-114 by Malachite green assay
Attribute: Activity
Quantity measured: Activity (%)

{"columns": ["Smiles data", "Numeric result"],
 "data": [
  ["O=C1NC(=S)N(c2ccc(Br)cc2)C(=O)/C1=C\\c1ccc2c(c1)OCO2", 120],
  ["O=C1N/C(=N\\c2ccc(Br)cc2)S/C1=C/c1c[nH]c2ccccc12", 87],
  ["CCc1ccc(N2C(=O)NC(=O)/C(=C/c3cc(C)n(-c4cc(C(=O)O)cc(C(=O)O)c4)c3C)C2=O)cc1", 74],
  ["Cc1cc(/C=C2/C(=O)NC(=S)N(c3cccc(Cl)c3Cl)C2=O)c(C)n1-c1cc(C(=O)O)cc(C(=O)O)c1", 96],
  ["O=C1NC(=S)N(c2ccc(F)cc2)C(=O)/C1=C\\c1ccc2c(c1)OCO2", 108],
  ["Cc1cc(/C=C2/C(=O)NC(=S)N(c3ccccc3F)C2=O)c(C)n1-c1cc(C(=O)O)cc(C(=O)O)c1", 60]
]}

----------
Attribute: Activity
- Experimental target: UDP-N-acetylmuramate--L-alanine ligase (Escherichia coli K-12) (UniProt P17952)
- Method description: Inhibition of Escherichia coli MurC assessed as residual enzyme activity at 250 uM after 15 mins in presence of 0.005% Triton X-114 by Malachite green assay

{"columns": ["Smiles data", "Output unit", "Activity"],
 "data": [
  ["CCc1ccc(N2C(=O)/C(=C\\c3cc(C)n(C4CCCCC4)c3C)C(=O)NC2=S)cc1", "%", 92],
  ["Cc1cc(/C=C2/S/C(=N/c3ccc(F)cc3)NC2=O)c(C)n1C", "%", 82],
  ["Cc1cc(/C=C2/C(=O)NC(=S)N(c3ccccc3)C2=O)c(C)n1-c1cc(C(=O)O)cc(C(=O)O)c1", "%", 75],
  ["Cc1cc(/C=C2/S/C(=N/c3cccc(Br)c3)NC2=O)c(C)n1C1CCCCC1", "%", 89],
  ["O=C1NC(=S)N(c2ccc(Cl)cc2)C(=O)/C1=C\\c1cc2ccccc2[nH]1", "%", 77],
  ["CCc1ccccc1N1C(=O)/C(=C\\c2cc(C)n(-c3cc(C(=O)O)cc(C(=O)O)c3)c2C)C(=O)NC1=S", "%", 85],
  ["Cc1cc(/C=C2/C(=O)NC(=O)N(c3ccc(Br)cc3)C2=O)c(C)n1-c1cc(C(=O)O)cc(C(=O)O)c1", "%", 62],
  ["C/N=C1/S/C(=C/c2cc(C)n(-c3cc(C(=O)O)cc(C(=O)O)c3)c2C)C(=O)N1C", "%", 106],
  ["Cc1cc(/C=C2/C(=O)NC(=S)N(c3cccc(Cl)c3)C2=O)c(C)n1-c1cc(C(=O)O)cc(C(=O)O)c1", "%", 80]
]}
